Kindly supply the reported max response values for the records listed here.
molecular target: Peroxisome proliferator-activated receptor alpha (Homo sapiens) (UniProt Q07869); assay: qHTS assay for small molecule agonists of the peroxisome proliferator-activated receptor alpha (PPARalpha) signaling pathway (AID 651778); details: PathHunter PPARalpha complementation, chemiluminescence, 6 h; active compounds read high; further: % of control where 0% means no effect
Sequence (Q07869 whole entry, looked up): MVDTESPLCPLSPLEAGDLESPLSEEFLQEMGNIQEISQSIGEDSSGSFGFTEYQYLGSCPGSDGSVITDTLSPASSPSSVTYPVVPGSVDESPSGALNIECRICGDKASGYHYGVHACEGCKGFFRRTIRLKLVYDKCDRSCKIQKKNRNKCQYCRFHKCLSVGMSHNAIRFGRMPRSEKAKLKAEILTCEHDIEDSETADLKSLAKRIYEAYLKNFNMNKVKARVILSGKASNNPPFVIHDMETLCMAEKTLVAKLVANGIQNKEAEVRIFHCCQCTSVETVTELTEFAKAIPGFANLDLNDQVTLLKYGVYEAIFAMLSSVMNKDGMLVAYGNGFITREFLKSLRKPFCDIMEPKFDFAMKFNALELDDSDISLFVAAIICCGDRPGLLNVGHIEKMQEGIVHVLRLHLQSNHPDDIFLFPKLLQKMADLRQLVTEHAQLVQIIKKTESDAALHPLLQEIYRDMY
One number for each entry, in %.

These recorded examples may help you get a feel for the data.
CCOc1ccc(NC(=O)OC(C)C)cc1OCC
2.76
C=CCCCCCCCCC=O
-1.39
CC(C)C(=O)OC(=O)C(C)C
-0.54
O=C(O)C(Oc1ccc(Cl)cc1)Oc1ccc(Cl)cc1
4.93
C#CCOC(=O)[C@@H](C)Oc1ccc(Oc2ncc(Cl)cc2F)cc1
-0.41

Working through the 5 compounds below one at a time, give max response for each.
1. CC(C)CCCCCOC(=O)CS
2. c1ccc2c(c1)ccc1c3ccccc3ccc21
3. CCCCCCCCC(=O)O
4. C/C=C/C/C=C\CCCCCCCCOC(C)=O
5. COc1cc(Cl)c(OC)cc1N

1: 0.461; 2: -3.59; 3: 1.35; 4: -1.2; 5: -0.316

Measured values drawn from PubChem BioAssay (NCATS) for this set.
